Source listed as patent US20260258115A1.

Entries and their Kd values follow.
measurement target: RSV prefusion F (preF), DS-Cav1 (respiratory syncytial virus, UniProt P03420 26-513)
assay overview: BLI, IgG on sensor, 100 nM antigen
Dear colleague, please send the value followed by its unit.

Examples with their reported Kd follow.
{"binder": "ADI-41407 (antibody, V domains shown, IgG1) VH: EVQLVESGGGLVQPGGSLRLSCAASGFTFSSNAMSWVRQAPGKGLEWVSYISGGSATKSYADSVKGRFTISRDNSKNTLYLQMKSLRAEDTAVYYCVGGSAYYSGFDYWGQGTLVTVSS VL: DIVMTQSPSSLSASVGDRVTISCRASQDIRNYLAWYQQKPGKVPNLLIYAASTLESGVPSRFSGSGYGTDFTLTISGLQPEDVATYYCQKYDSAPPFTFGPGTKVDIK", "Kd": "2.08 nM"}
{"binder": "ADI-41372 (antibody, V domains shown, IgG1; also called Ab 669) VH: QVQLVQSGAEVKKPGSSVKVSCKASGGISSSYAISWVRQAPGQGLEWMGGIIPIFGTTNYAQKFQGRVTITADKSTSTVYMELSSLRSEDSAVYFCARAYCSGGTCYGGADYWGQGTLVTVSS VL: SYELTQPPSVSVSPGQTARITCSGDVLPKQYAYWYQQKLGQAPLLVMYKDTERPSGIPERFSGSSSVTAVTLTISGVQAEDEADYYCQSADSTQELFGGGTKLTVL", "Kd": "2.48 nM"}
{"binder": "ADI-41415 (antibody, V domains shown, IgG1) VH: QVTLKESGPALVKPTQTLTLTCTFSGFSLSTSRTRVSWIRQPPGKALEWLARVDWDDDKFYNPVLKTRLSISKDPSKNQVVLTMTNVDPVDTATYYCVRMAHYGSGGYYVEYFQDWGQGTLVTVSS VL: DIQLTQSPASLSASAGDRVTITCRASQNINRYLNWYQQQSGKAPKLLIYAASILQSGVPSRFSGSGSGTDFTLTITSLQPEDFAIYYCQQSYTTPKYTFGQGTKVEIK", "Kd": "1.08 nM"}
{"binder": "ADI-41446 (antibody, V domains shown, IgG1; also called Ab 730) VH: EVQLLESGGGLVQPGGSLRLSCAASGFTYYSYAMNWVRQAPGKGLEWVSAISGGGDNTFYAESVKGRFTISRDNAKNTLYLQMDSLRAEDTAVYYCAKDLQGYTSLYCFDYWGQGTLVTVSS VL: EIVMTQSPATLSLSPGERAALSCRASQSVFNYVAWYQQKPGQAPRLLIYDTSKRATGIPARFSGSGSGTDFTLTISSLEPEDFAVYYCQHRYNWPGLIFGGGTKVEIK", "Kd": "3.6 nM"}

Please turn your attention to the following entry.
# Kd lookup, item ADI-41429 (antibody, V domains shown, IgG1; also called Ab 714) VH: QVQLVQSGAEVKKPGSSVKVSCKASGGTFSSYAISWVRQAPGQGLEWMGGIIPIFGTVNYAQKFPGRVTITADESTSTAYMELSSLRSEDTAIYYCARDSPSYTGSLLFSQYYYGMDVWGQGTTVTVSS VL: QPVLTQPASVSGSPGQSITISCTGTSSDVGGYDYVSWYQHHPGKAPKLMIYEVSNRPSGVSNRFSGSKSGNTASLTISGLQAEDEADYYCSSFTTSSPRVFGTGTKLTVL
3.62 nM
